- Test system: HCT-15 colon
- protocol text: NCI-60 one-dose screen, 48 h
- settings: 10 µM unless noted
Compounds without any hit were thinned out: in the full panel of roughly 83,000, 20% have a hit. Active and inactive are the calls of the source. How the source made its calls: active means growth percent below 10; inactive means the rest.
Use one of these outcomes when replying: active, inactive

Previously resolved entries follow.
>>> class_assignment("CC(C)[N+](C)(C)CC(O)COc1cccc2ccccc12 (centres undefined)")
"inactive"
>>> class_assignment("CCN=Cc1c(O)c(O)c(C(C)C)c2cc(C)c(-c3c(C)cc4c(C(C)C)c(O)c(O)c(C=NCC)c4c3O)c(O)c12")
"inactive"
>>> class_assignment("CSc1cccc([N+](=O)[O-])c1")
"inactive"
>>> class_assignment("Cc1ccc2c(c1)C(C)Cc1c(Cl)ncnc1N2C (centres undefined)")
"active"
>>> class_assignment("CCOC(=O)c1sc2nc(-c3cc(OC)c(OC)c(OC)c3)nc(N3CCOCC3)c2c1C")
"inactive"
>>> class_assignment("C[n+]1c2ccccc2nc2c(N)cc(N)cc21")
"inactive"
>>> class_assignment("Cc1cccc(C[C@H](NC(=O)Nc2ccc(Cl)cc2F)C(=O)N[C@@H]2C(=O)N3C[C@H](OC(=O)CCN(C)C)C[C@H]3C(=O)N3CCCC[C@H]3C(=O)N[C@@H](C)C(=O)N3C[C@H](C)C[C@H]3C(=O)O[C@H]2C)c1")
"inactive"
>>> class_assignment("Nc1ccc2c(c1)Cc1cc(NC(=O)C(F)(F)F)ccc1-2")
"inactive"
>>> class_assignment("O=C(Nc1cccc2cccnc12)c1cc(C(=O)c2ccc(Cl)cc2)n2ccc(-c3ccncc3)cc12")
"inactive"
>>> class_assignment("O=C(Nc1cccc(F)c1)c1cc(=O)[nH]c2cc(Br)ccc12")
"inactive"

input: Give the logged outcome of this assay for the following compound: COc1cc2c(c(OC)c1OC)-c1ccc(NNC(N)=S)c(=O)cc1[C@@H](NC(C)=O)CC2
output: inactive

input: Quick one: O=C1C(Cl)=C(Nc2ccc3cn[nH]c3c2)C(=O)c2ccccc21
output: active

input: Please give the result for O=C(NCc1ccc(Cn2c(=O)sn(-c3ccccc3)c2=O)cc1)OCc1ccc2c(Br)cc(Br)c(O)c2n1 too.
output: active

input: Same thing, different compound: Cc1cnc(N)nc1OCCNC(=O)c1cccc(-c2ccc(S(=O)(=O)Nc3ccc4c(c3)N(C(=O)C3CC3)CCC4)cc2)c1
output: inactive

input: Now consider C=CCCC1(C)NC(=O)NC1=O (centres undefined) and answer again.
output: inactive

input: Consider next the compound Cn1cc(-c2nnc(-c3cn(C)c4ncccc34)s2)c2ccccc21 in the same way.
output: inactive

input: // same read-out, input: COc1ccc2nc3c(cc2c1)C(=O)CC(C(F)(F)F)C3 (centres undefined)
output: inactive

input: // same read-out, input: Nn1c(Nc2ccc(S(=O)(=O)Nc3ncccn3)cc2)nnc(/C=C/c2c(O)ccc3ccccc23)c1=O
output: inactive

input: Same question for NS(=O)(=O)c1ccc(CCN2C(=O)/C(=C\c3ccccc3)C=C2c2ccc(Cl)cc2)cc1 please.
output: inactive

====

- Test system: SF-295 CNS
- protocol text: NCI-60 one-dose screen, 48 h (100 = growth as untreated, 0 = no growth, -100 = all killed)
- settings: 10 µM unless noted
This is part of a sample that, as a whole, favours compounds with a hit. Of some 83,000 tested, about 20% had one in any assay. Activity calls are given as the source filed them. The calls were made as follows: active = growth percent below 10; inactive = the rest.
experimental readout: growth

Worked cases, growth given:
>>> observed_value("Cc1cccc(C[C@H](NC(=O)Nc2ccc(Cl)cc2F)C(=O)N[C@@H]2C(=O)N3C[C@H](OC(=O)CCN(C)C)C[C@H]3C(=O)N3CCCC[C@H]3C(=O)N[C@@H](C)C(=O)N3C[C@H](C)C[C@H]3C(=O)O[C@H]2C)c1")
"7.95% (active)"
>>> observed_value("COc1ccc(C(=O)c2nccc3cc(OC)c(OC)cc23)cc1OC")
"92.6% (inactive)"
>>> observed_value("C#CCC(C(=O)OCC)C(=O)OCC")
"103% (inactive)"

Consider now this further compound.
input: // growth lookup, key: Ic1ccc2[nH]cc(SSc3c[nH]c4ccc(I)cc34)c2c1
output: -19.1% (active)

====

- Test system: SNB-19 CNS
- protocol text: NCI-60 one-dose screen, 48 h
- settings: 10 µM unless noted
The panel holds about 83,000 compounds, 20% with a hit somewhere; the sample as a whole holds those more often. Active and inactive are the calls of the source. Rule for the calls: active = growth percent below 10; inactive = the rest.
Classes to choose from: active, inactive

Look over these answered cases.
>>> class_assignment("O=C1CC(C(F)(F)F)Cc2nc3ccc(Br)cc3cc21 (configuration not stated)")
"inactive"
>>> class_assignment("CNc1cc(C(=O)O)nc(NC)n1")
"inactive"
>>> class_assignment("COc1ccc(C(=O)c2nccc3cc(OC)c(OC)cc23)cc1OC")
"inactive"

input: Look up the recorded call for O=C(Nc1ccccc1)Nc1ccc(C(=O)/C=C/c2ccc(N3CCCC3)cc2)cc1 in this test.
output: inactive

input: Please do the same for C=CCCCCOc1ccccc1-c1cnc(OCCCCC=C)n1C as well.
output: inactive

====

- Test system: OVCAR-8 ovarian
- protocol text: NCI-60 one-dose screen, 48 h
- settings: 10 µM unless noted
This is part of a sample that, as a whole, favours compounds with a hit. Of some 83,000 tested, about 20% had one in any assay. Activity calls are given as the source filed them. The calls were made as follows: active = growth percent below 10; inactive = the rest.
Use one of these outcomes when replying: Yes = active, No = inactive

As a guide, the following entries are already answered.
>>> class_assignment("CC(C)C1=NOC(=O)C1=Cc1cn(-c2ccco2)nc1-c1ccccc1")
"No"
>>> class_assignment("c1cc2ccc3cc2cc1CNCCN1CCNCc2ccc4ccc(cc4c2)CNCCN(CCNC3)CCNCc2ccc3ccc(cc3c2)CNCC1")
"No"
>>> class_assignment("COc1cc(-c2cc(-c3ccc(Nc4ncnc5cc(Cl)ccc45)cc3)nc(N3CCCCC3)n2)cc(OC)c1OC")
"No"
>>> class_assignment("COc1ccc(NCc2cn(-c3ccc(C(=O)O)cc3)nc2-c2ccc(C(=O)O)cc2)cc1C(F)(F)F")
"No"
>>> class_assignment("CC[C@]12C=CCN3CC[C@@]4(c5ccc(OC)cc5N(C)[C@H]4[C@@](O)(C(=O)OC)[C@@H]1OC(=O)CCC(=O)O[C@H]1CC[C@H]4[C@@H]5CCC6=CC(=O)CC[C@@H]6[C@H]5CC[C@]14C)[C@@H]32")
"No"

input: State the result this test recorded for CC1(C)CC[C@]23CC[C@]4(C)[C@H](CC[C@@H]5[C@@]6(C)C/C(=C/c7cccnc7)C(=O)C(C)(C)[C@@H]6CC[C@]54C)[C@H]2[C@H]1OC3=O .
output: No

input: Now the compound COc1cc(NCc2ccccc2O)c2ncccc2c1
output: No

input: Likewise for CNC(=O)c1cc(Oc2ccc3nc(NC(=O)c4ccc5ncccc5c4)sc3c2)ccn1 ?
output: No

====

- Tested on: SR leukemia
- protocol text: NCI-60 one-dose screen, 48 h
- settings: 10 µM unless noted
Compounds without any hit were thinned out: in the full panel of roughly 83,000, 20% have a hit. Active and inactive are the calls of the source. How the source made its calls: active means growth percent below 10; inactive means the rest.
Output constraint: value belongs to active, inactive

Field: example entries. Status: answers known.
>>> class_assignment("CC1(C)CC[C@]2(C(N)=O)CC[C@]3(C)C(=CC[C@@H]4[C@@]5(C)C/C(=C/c6cccnc6)C(=O)C(C)(C)[C@@H]5CC[C@]43C)[C@@H]2C1")
"active"
>>> class_assignment("O=c1[nH]c(CN2CCN(c3cccc(Cl)c3)CC2)nc2cc(Cl)ccc12")
"inactive"

input: Recorded call for CCOC(=O)c1ccc2nc(-c3c(C)nn(-c4ccccc4)c3N3CCOCC3)[nH]c2c1 ?
output: inactive

input: COc1cc2c(c(Br)c1N)-c1cc(Br)c(N)cc1C2=O ?
output: inactive

input: Same question for CCOc1ccc(S(=O)(=O)Nc2ccc3c(c2)N(S(=O)(=O)CC)CCC3)cc1 please.
output: inactive

input: What about this compound? C#C[C@]1(O)CC[C@H]2[C@@H]3CC=C4c5nc(Nc6ccccn6)sc5CC[C@]4(C)[C@H]3CC[C@@]21C
output: active

input: Follow-up entry: Cc1cc(C)c(-c2cc(O)c(-c3c(C)cc(C)cc3C)cc2O)c(C)c1
output: inactive

input: # repeat for COc1ccc(NC(=O)Nc2ccc(-c3cccnc3)cc2N2CCC(CO)CC2)cc1
output: inactive

input: What do you have for COc1ccc2c(c1)C(C)Cc1c(ncnc1-n1cnc3ccccc31)N2C (stereo unspecified) ?
output: inactive

input: Entry O=C1Cc2c(sc3c(F)cccc23)C(c2ccccc2[N+](=O)[O-])N1 (stereo unspecified) please
output: inactive

input: Then Cn1cc(-c2noc(-c3cn(C)c4ncc(F)cc34)n2)c2cc(Cl)ccc21 ?
output: inactive
